I'd be grateful if you could share measured pIC50 for these entries.
Molecular target: human STAT6/pIL-4Rα (Homo sapiens)
Construct: histidine tag
Sequence (P42226 123-658): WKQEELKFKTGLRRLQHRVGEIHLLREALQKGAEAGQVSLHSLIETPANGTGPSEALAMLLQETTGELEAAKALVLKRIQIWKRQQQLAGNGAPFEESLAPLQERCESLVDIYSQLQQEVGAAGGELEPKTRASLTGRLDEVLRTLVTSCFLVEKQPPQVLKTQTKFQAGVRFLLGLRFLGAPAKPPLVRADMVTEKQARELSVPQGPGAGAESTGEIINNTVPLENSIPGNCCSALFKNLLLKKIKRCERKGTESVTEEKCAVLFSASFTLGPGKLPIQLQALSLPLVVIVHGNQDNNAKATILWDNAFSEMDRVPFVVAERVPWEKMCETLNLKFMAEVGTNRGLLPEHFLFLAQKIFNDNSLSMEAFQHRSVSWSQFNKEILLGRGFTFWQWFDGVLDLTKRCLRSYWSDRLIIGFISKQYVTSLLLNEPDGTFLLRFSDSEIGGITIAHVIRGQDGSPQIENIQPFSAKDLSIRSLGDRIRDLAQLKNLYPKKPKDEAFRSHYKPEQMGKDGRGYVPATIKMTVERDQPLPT
Assay: Binding inhibitory activity between human STAT6/pIL-4Rα by fluorescence polarization method
Conditions: rhSTAT6 (123-658) / FAM-pIL-4Rα peptide
pIC50 here is simply -log10 of the concentration when that concentration is written in mol/L.

Ask: // lookup pIC50 | system=human STAT6/pIL-4Rα (Homo sapiens) | key= `Cc1nn(C)c(=O)n1-c1ccc(-c2cc3ccnc(C(=O)Nc4ccc(F)c(C(N)=O)c4)c3n2CC2CC2)cc1`
Result: 6.49

Ask: Lab request: please report pIC50 under test system human STAT6/pIL-4Rα (Homo sapiens) for CCn1c(-c2ccc(N3C(=O)C(C)CC3C)cc2)cc2cc(C(F)(F)F)nc(C(=O)Nc3ccc(F)c(C(N)=O)c3)c21 (stereo not shown)
Result: 6.28

Ask: GET /values?readout=pIC50&system=human STAT6/pIL-4Rα (Homo sapiens)&item= `CCn1c(-c2ccc(-n3ncn(C)c3=O)cc2)cc2ccnc(C(=O)Nc3ccc(F)c(C(N)=O)c3)c21`
Result: 6.43

Ask: Find the measured pIC50: item `COCCn1c(-c2ccc(-n3c(C)nn(C)c3=O)cc2)cc2cc(C(F)(F)F)cc(C(=O)Nc3cccc(C(=O)Nc4cc(C#N)n(C)n4)c3)c21` , target or system human STAT6/pIL-4Rα (Homo sapiens).
Result: 6.49

Ask: Field: pIC50 (human STAT6/pIL-4Rα (Homo sapiens)). Entry: `CCn1c(-c2ccc(-n3c(C)nn(C)c3=O)cc2)cc2c(C(F)(F)F)ccc(C(=O)Nc3cccc(C(N)=O)c3F)c21`
Result: 6.51

Ask: Tell me reported pIC50 for `Cc1nn(C)c(=O)n1-c1ccc(-c2cc3ccnc(C(=O)Nc4cccc(C(N)=O)c4)c3n2C)cc1` , tested with human STAT6/pIL-4Rα (Homo sapiens).
Result: 6.54

Ask: pIC50 of CCn1c(-c2ccc(N3C(=O)C(C)CC3C)cc2)cc2ccnc(C(=O)Nc3ccc(F)c(C(N)=O)c3)c21 (stereo not shown) [Ex. 129] on human STAT6/pIL-4Rα (Homo sapiens)?
Result: 6.23
